Would you mind telling me the reported Stability (Arbitrary units) Cath L 4 h of each entry?
molecular target: Cathepsin L (Homo sapiens)
Sequence (P07711 114-333): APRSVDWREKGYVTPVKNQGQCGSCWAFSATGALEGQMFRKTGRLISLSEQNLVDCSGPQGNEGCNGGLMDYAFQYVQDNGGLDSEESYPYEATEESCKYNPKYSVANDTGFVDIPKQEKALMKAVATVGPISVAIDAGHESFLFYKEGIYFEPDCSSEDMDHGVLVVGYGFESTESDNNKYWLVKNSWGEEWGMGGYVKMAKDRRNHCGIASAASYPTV
Numbered stars: 1 amine (or outer) side, 2 acyl side, 3 side chain; on linkers, the order of the positions; unused ones are H or OH. Square brackets hold non-standard residues; d marks the D form. Peptide text beside a SMILES is read from it. ξ: configuration not given here. X1 = CC(C)c1oc([C@H](CO)N[*:1])nc1C(=O)[*:2]; Pro(3R-Ph) = O=C(O)[C@H]1NCC[C@@H]1c1ccccc1; Tic = O=C(O)[C@@H]1Cc2ccccc2CN1; Cha = N[C@@H](CC1CCCCC1)C(=O)O; ξDisc = O=C(O)C1NCc2ccccc21
Answers are plain numbers, in Arbitrary units.

Reference set (3 entries):
1) CSCC[C@H](NC(=O)[C@@H]1Cc2ccccc2CN1C(=O)[C@H](CCCNC(=N)N)NC(=O)[C@H](CC1CCCCC1)NC(C)=O)C(=O)N1CC[C@H](c2ccccc2)[C@H]1C(=O)N[C@@H](CO)c1nc(C(=O)N(C)C)c(C(C)C)o1 [Compound P33] (Ac-[Cha]R[Tic]M[Pro(3R-Ph)][X1]-NMe2)	107
2) CSCC[C@H](NC(=O)[C@@H]1Cc2ccccc2CN1C(=O)[C@H](CCCNC(=N)N)NC(=O)[C@H](CC1CCCCC1)NC(C)=O)C(=O)N1CC[C@H](c2ccccc2)[C@H]1C(N)=O [Compound P31, Ac-Cha-Arg-Tic-Met-βPhPro-NH2] (Ac-[Cha]R[Tic]M[Pro(3R-Ph)]-NH2)	103
3) CSCC[C@H](NC(=O)C1c2ccccc2CN1C(=O)[C@H](CCCNC(=N)N)NC(=O)[C@H](CC1CCCCC1)NC(C)=O)C(N)=O (stereo partly drawn) [Compound P12-1, Ac-Cha-Arg-Disc-Met-NH2] (Ac-[Cha]R[ξDisc]M-NH2)	101

Turning now to a further compound:
Problem: Endpoint output: Stability (Arbitrary units) Cath L 4 h of CSCC[C@H](NC(=O)[C@@H]1Cc2ccccc2CN1C(=O)[C@H](CCCNC(=N)N)NC(=O)[C@H](CC1CCCCC1)NC(C)=O)C(N)=O [Compound P1, Ac-Cha-Arg-Tic-Met-NH2] (Ac-[Cha]R[Tic]M-NH2) . Value?
Result: 117
